assay overview: Clearance in male Sprague-Dawley rat at 0.72 mg/kg, iv
Format: ADME, organism-based
measurement conditions: in vivo
readout type: clearance

C[C@H](Nc1ncnc(N)c1C#N)c1nc2ccc(F)cc2n1-c1cccc(F)c1 46 mL/min/kg

----------
Measured CL free values are reported for all entries that follow.
assay overview: Unbound clearance in male Sprague-Dawley rat at 0.5 mg/kg, iv
Format: ADME, organism-based
measurement conditions: in vivo
readout type: CL free

C[C@H](Nc1ncnc(N)c1C#N)c1nc2ccc(F)cc2n1-c1ccc(F)cc1 300 mL/min/kg
C[C@H](Nc1ncnc(N)c1C#N)c1nc2ccc(F)cc2n1-c1ccccc1 447 mL/min/kg
C[C@H](Nc1ncnc(N)c1C#N)c1nc2ccc(F)cc2n1-c1cccc(F)c1 460 mL/min/kg
